system: Nakaseomyces glabratus; experiment: Antifungal activity against Candida glabrata 20/I after 24 hrs by broth microdilution method; type: functional

| chemicalString | MIC |
| --- | --- |
| O=[N+]([O-])c1cc(-c2nnc(SCc3ccc(Cl)cc3)o2)cc([N+](=O)[O-])c1 | > 125 µM |
| O=[N+]([O-])c1cc(-c2nnc(SCc3ccccc3Cl)o2)cc([N+](=O)[O-])c1 | > 500 µM |
| C[C@@H]1[C@H](O)[C@@H](C)/C=C/C=C/C=C/C=C/C=C/C=C/C=C/[C@H](O[C@@H]2O[C@H](C)[C@@H](O)[C@H](N)[C@@H]2O)C[C@@H]2O[C@](O)(C[C@@H](O)C[C@@H](O)[C@H](O)CC[C@@H](O)C[C@@H](O)CC(=O)O[C@H]1C)C[C@H](O)[C@H]2C(=O)O | 0.54 µM |
| COc1ccc(CSc2nnc(-c3cc([N+](=O)[O-])cc([N+](=O)[O-])c3)o2)cc1 | > 500 µM |

###

system: Mycobacterium kansasii; test: Antimycobacterial activity against Mycobacterium kansasii CNCTC My 235/80 after 14 days by micromethod; assay type: functional; settings: CNCTC My 235/80, 336 h
endpointLabel: MIC (µM)

| chemicalString | endpointLabel | unitTag | prefixOperator | valueObserved |
| --- | --- | --- | --- | --- |
| O=[N+]([O-])c1cc(-c2nnc(SCc3cccc(Cl)c3)o2)cc([N+](=O)[O-])c1 | MIC | µM | = | 0.06 |
| O=[N+]([O-])c1cc(-n2nnnc2SCc2ccc(Cl)c(Cl)c2)cc([N+](=O)[O-])c1 | MIC | µM | = | 1 |
| O=[N+]([O-])c1cc(-c2nnc(S)o2)cc([N+](=O)[O-])c1 | MIC | µM | = | 125 |
| COc1ccc(CSc2nnc(-c3cc([N+](=O)[O-])cc([N+](=O)[O-])c3)o2)cc1 | MIC | µM | = | 0.125 |
| Nc1cc(-c2nnc(SCc3ccc([N+](=O)[O-])cc3)o2)cc([N+](=O)[O-])c1 | MIC | µM | = | 125 |
| Nc1cc(-c2nnc(SCc3ccc(Br)cc3)o2)cc([N+](=O)[O-])c1 | MIC | µM | = | 125 |
| COc1ccc(CSc2nnc(-c3cc([N+](=O)[O-])cc(C(F)(F)F)c3)o2)cc1 | MIC | µM | = | 4 |
| O=[N+]([O-])c1cc(O)cc(-c2nnc(SCc3ccc(Cl)c(Cl)c3)o2)c1 | MIC | µM | > | 250 |
| O=[N+]([O-])c1cc(-c2nnc(SC3CCCCC3)o2)cc([N+](=O)[O-])c1 | MIC | µM | = | 0.03 |

###

tested on: Mycobacterium avium; assay: Antimycobacterial activity against Mycobacterium avium CNCTC My 330/88 after 14 days by micromethod; type: functional; settings: CNCTC My 330/88, 336 h
Lab note - cut at 20 µM for MIC: MET if strictly below, NOT MET if not.

| chemicalString | testSystem | answerLabel |
| --- | --- | --- |
| COc1ccc(CSc2nnc(-c3cc([N+](=O)[O-])cc([N+](=O)[O-])c3)o2)cc1 | Mycobacterium avium | MET |
| CC(=O)Nc1cc(-c2nnc(SCc3ccccc3)o2)cc([N+](=O)[O-])c1 | Mycobacterium avium | NOT MET |
| CC(=O)Nc1cc(-c2nnc(SCc3ccc([N+](=O)[O-])cc3)o2)cc([N+](=O)[O-])c1 | Mycobacterium avium | NOT MET |
| O=[N+]([O-])c1cc(-c2nnc(SCc3ccc(Cl)c(Cl)c3)o2)cc(C(F)(F)F)c1 | Mycobacterium avium | NOT MET |
| O=[N+]([O-])c1cc(-c2nnc(SCc3ccccc3)o2)cc(C(F)(F)F)c1 | Mycobacterium avium | NOT MET |
| CSc1nnc(-c2cc([N+](=O)[O-])cc([N+](=O)[O-])c2)o1 | Mycobacterium avium | MET |
| O=[N+]([O-])c1cc(-c2nnc(SCc3ccc(Cl)cc3)o2)cc(C(F)(F)F)c1 | Mycobacterium avium | NOT MET |
| O=[N+]([O-])c1cc(-c2nnc(SC3CCCCC3)o2)cc([N+](=O)[O-])c1 | Mycobacterium avium | MET |
| COc1ccc(CSc2nnc(-c3cc(N)cc([N+](=O)[O-])c3)o2)cc1 | Mycobacterium avium | NOT MET |
| O=[N+]([O-])c1cc(-c2nnc(SCc3ccccc3Cl)o2)cc([N+](=O)[O-])c1 | Mycobacterium avium | MET |
| CC(=O)Oc1cc(-c2nnc(SCc3ccc(Cl)c(Cl)c3)o2)cc([N+](=O)[O-])c1 | Mycobacterium avium | NOT MET |
| O=[N+]([O-])c1cc(-n2nnnc2SCc2ccc(Cl)cc2)cc([N+](=O)[O-])c1 | Mycobacterium avium | MET |
| NNC(=O)c1ccncc1 | Mycobacterium avium | NOT MET |
| Nc1cc(-c2nnc(SCc3ccc(Br)cc3)o2)cc([N+](=O)[O-])c1 | Mycobacterium avium | NOT MET |
| O=[N+]([O-])c1cc(-c2nnc(SCc3ccc(Cl)c(Cl)c3)o2)cc([N+](=O)[O-])c1 | Mycobacterium avium | MET |
| CCCCCSc1nnc(-c2cc([N+](=O)[O-])cc([N+](=O)[O-])c2)o1 | Mycobacterium avium | MET |
| COc1ccc(CSc2nnc(-c3cc(NC(C)=O)cc([N+](=O)[O-])c3)o2)cc1 | Mycobacterium avium | NOT MET |
| O=[N+]([O-])c1cc(-c2nnc(SCc3ccc(Br)cc3)o2)cc([N+](=O)[O-])c1 | Mycobacterium avium | NOT MET |
| CCCSc1nnc(-c2cc([N+](=O)[O-])cc([N+](=O)[O-])c2)o1 | Mycobacterium avium | MET |
| O=[N+]([O-])c1cc(-c2nnc(SCc3ccccc3)o2)cc([N+](=O)[O-])c1 | Mycobacterium avium | MET |

Data origin, for the record: ChEMBL document CHEMBL4002566
